System: NCI-H460 lung
Assay: NCI tumour cell line growth inhibition, 48 h
ASSAY READOUT: TGI (µM)
Field: numeric (µM). Do not append units.

Before answering, review these 3 worked examples.
COMPOUND	TGI (µM)
C=CCCCOC1[C@H](OCc2ccccc2)C(OCc2ccccc2)C(OC)O[C@@H]1CNC(=O)c1cccc(I)c1 (stereo partly drawn)	8.64
C/C=C/[C@H]1O[C@@](O)([C@@H](C)[C@H](O)[C@H](C)[C@H]2OC(=O)/C(OC)=C/C(C)=C/[C@@H](C)[C@@H](O)[C@@H](CC)[C@@H](O)[C@H](C)C/C(C)=C/C=C/[C@@H]2OC)C[C@H](OC2CC(O)C(OC(N)=O)C(C)O2)[C@@H]1C (stereo partly drawn)	14.4
COc1cc2c(cc1-c1coc3cc(OCC=C(C)C)ccc3c1=O)OCO2	35.1

## Task // TGI lookup, key: `COC1=CC(=O)c2c(O)c3c(c(O)c2C1=O)C[C@](C)(O)C[C@@H]3O`
## Result 6.84

## Task Do the same for CCN(CC)CCCC(C)Nc1c(Sc2cnc3cc(Cl)ccc3c2NC(C)CCCN(CC)CC)cnc2cc(Cl)ccc12 (stereo not drawn) please
## Result 3.23

Numbers sourced from PubChem BioAssay (NCI).
